procedure summary: Half life in Sprague-Dawley rat at 100 ug/kg, po
Format: ADME, organism-based
test parameters: in vivo, 0.1 mg/kg
Listing of recorded half-life by entry.
API: value field is a number in h; no unit string.

What value of half-life has been recorded for this entry: CCC(CC)(c1ccc(OCC(O)C(C)(C)C)c(C)c1)c1ccc(OC[C@@H](O)CCC(=O)O)c(C)c1 (mixture of isomers) 8

# next molecule below
Look up half-life for this molecule: CCC(CC)(c1ccc(OCCCCC(=O)O)c(C)c1)c1ccc(OCC(O)C(C)(C)C)c(C)c1 (racemic) 3.1

---

# Lookup of reported MRT keyed by entry
procedure summary: Mean residence time in Sprague-Dawley rat at 100 ug/kg, po
Assay type: ADME, organism-based
test parameters: in vivo, 0.1 mg/kg
# number only, unit h dropped from output

Given the entry CCC(CC)(c1ccc(OCCCCC(=O)O)c(C)c1)c1ccc(OCC(O)C(C)(C)C)c(C)c1 (racemic) , report its measured MRT. 3.8

Kindly review the next compound as well.
Reported MRT for CCC(CC)(c1ccc(OCC(O)C(C)(C)C)c(C)c1)c1ccc(OC[C@@H](O)CCC(=O)O)c(C)c1 (mixture of isomers) : what is it? 12.3
